These entries and their values trace back to ChEMBL document CHEMBL4334546.

# ASSAY OVERVIEW: Plasma concentration in C57BL/6 mouse at 1 mg/kg administered as single dose after 2 hrs
# Assay type: ADME, organism-based
REPORTED METRIC: concentration at 2 h (nM)

# CPD SMILES, NUMERIC VALUE
rows = [
    ("O=C(O)c1ccc(-c2nn(C(=O)c3c(Cl)cccc3C(F)(F)F)c3cccnc23)c(F)c1", 180),
]

----------
# ASSAY OVERVIEW: Plasma concentration in C57BL/6 mouse at 100 mg/kg administered as single dose after 2 hrs
# Assay type: ADME, organism-based

# CPD SMILES, UNIT TEXT, concentration at 2 h
data = [
    ("O=C(O)c1ccc(-c2nn(C(=O)c3c(Cl)cccc3C(F)(F)F)c3cccnc23)c(F)c1", "µM", 254),
]

----------
# ASSAY OVERVIEW: Half life in Wistar Han rat at 0.5 mg/kg, iv or 1 mg/kg, po by LC-MS/MS analysis
# Type: ADME, organism-based
# APPLIED CONDITIONS: in vivo
# half-life listing for each entry below

# CPD SMILES, half-life, h
measured = [
    ("O=C(O)c1ccc(-c2nn(C(=O)c3c(Cl)cccc3C(F)(F)F)c3cccnc23)c(F)c1", 0.4),
    ("O=C(O)[C@@H]1CCN(c2nn(C(=O)c3c(Cl)cccc3C3CC3)c3cccc(F)c23)C[C@H]1O", 3.7),
]

----------
# ASSAY OVERVIEW: Solubility of compound at pH 2
# Type: physicochemical
# APPLIED CONDITIONS: buffer
# solubility listing for each entry below

# CPD SMILES, UNIT TEXT, OP, solubility
records = [
    ("O=C(O)c1ccc(-c2nn(C(=O)c3c(Cl)cccc3C(F)(F)F)c3cccnc23)c(F)c1", "µM", "<", 2),
    ("O=C(O)[C@@H]1CCN(c2nn(C(=O)c3c(Cl)cccc3C3CC3)c3cccc(F)c23)C[C@H]1O", "µM", "=", 28),
]

----------
# half-life listing for each entry below
# ASSAY OVERVIEW: Half life in Beagle dog at 0.25 mg/kg, iv or 0.5 mg/kg, po by LC-MS/MS analysis
# Format: ADME, organism-based, Canis lupus familiaris
# APPLIED CONDITIONS: in vivo
REPORTED METRIC: half-life (min)

# CPD SMILES, REPORTED METRIC, UNIT TEXT, NUMERIC VALUE
records = [
    ("O=C(O)c1ccc(-c2nn(C(=O)c3c(Cl)cccc3C(F)(F)F)c3cccnc23)c(F)c1", "half-life", "min", 84),
    ("O=C(O)[C@@H]1CCN(c2nn(C(=O)c3c(Cl)cccc3C3CC3)c3cccc(F)c23)C[C@H]1O", "half-life", "min", 186),
]

----------
# bioavailability listing for each entry below
# ASSAY OVERVIEW: Oral bioavailability in Wistar Han rat at 1 mg/kg by LC-MS/MS analysis
# Type: ADME, organism-based
# APPLIED CONDITIONS: in vivo

# CPD SMILES, UNIT TEXT, bioavailability
rows = [
    ("O=C(O)c1ccc(-c2nn(C(=O)c3c(Cl)cccc3C(F)(F)F)c3cccnc23)c(F)c1", "%", 16),
    ("O=C(O)[C@@H]1CCN(c2nn(C(=O)c3c(Cl)cccc3C3CC3)c3cccc(F)c23)C[C@H]1O", "%", 35),
]
